Target: T1, Sla1-2, P32790
T1 sequence (P32790 60-140, looked up): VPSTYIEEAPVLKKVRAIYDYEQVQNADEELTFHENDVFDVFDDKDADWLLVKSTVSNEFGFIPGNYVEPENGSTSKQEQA
Assay: SPOT array
Conditions: median of control spots 712
I'd be grateful if you could share measured SPOT intensity for these entries.

For record "APPLPPTAPPPPSLP" the listed SPOT intensity is 0

For record "VQPTAAPATPPRHIS" the listed SPOT intensity is 0

For record "KNPRRQLQIPRQQPS" the listed SPOT intensity is 0

Please examine the following record next.
For record "VQKRKLPLPGSIASA" the listed SPOT intensity is 0
